TARGET_SYSTEM: UniProt:P28845
Sequence (P28845 whole entry): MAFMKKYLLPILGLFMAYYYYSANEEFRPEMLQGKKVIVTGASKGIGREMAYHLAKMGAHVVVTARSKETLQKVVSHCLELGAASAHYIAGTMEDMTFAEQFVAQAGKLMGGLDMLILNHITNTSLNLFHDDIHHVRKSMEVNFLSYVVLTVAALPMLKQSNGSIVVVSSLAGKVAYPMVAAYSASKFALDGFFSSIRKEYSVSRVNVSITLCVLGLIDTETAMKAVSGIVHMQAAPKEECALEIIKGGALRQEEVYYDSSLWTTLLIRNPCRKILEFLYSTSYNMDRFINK
EXPERIMENT_DESCRIPTION: HTRF cortisol assay in 11β-HSD1 overexpressing CHO cells
Format: cell-based
EXPERIMENTAL_SETUP: human 11β-HSD1 overexpressing CHO cells, 160 nM cortisone, 3 hr at 37° C., read-out: IC50(nM) to 11β-HSD-1
// values below are reported IC50
Kindly write the number and append the unit.

Example results:
>  <COMPOUND>
NC(=O)C12CC3CC(C1)C(NC(=O)CN1CC4(CC4)CN(c4c(Cl)cc(Cl)cc4Cl)S1(=O)=O)C(C3)C2 (stereo not drawn)

>  <IC50>
5 nM

$$$$
>  <COMPOUND>
NC(=O)C12CC3CC(C1)C(NC(=O)CN1CCCN(c4ccccc4)S1(=O)=O)C(C3)C2 (stereo not drawn)

>  <IC50>
17 nM

$$$$
>  <COMPOUND>
CC1CN(CC(=O)NC2C3CC4CC2CC(C(N)=O)(C4)C3)S(=O)(=O)N(c2c(Cl)cc(C(F)(F)F)cc2Cl)C1 (stereo not drawn)

>  <IC50>
4.8 nM

$$$$

Write down the reported IC50 (system: UniProt:P28845) of O=C(CN1CCCN(Cc2ccccc2)S1(=O)=O)NC1C2CC3CC(C2)CC1C3 (stereo not drawn)
360 nM

Write down the reported IC50 (system: UniProt:P28845) of NC(=O)C12CC3CC(C1)C(NC(=O)CN1CCCN(c4cccc(F)c4)S1(=O)=O)C(C3)C2 (stereo not drawn)
3 nM

Write down the reported IC50 (system: UniProt:P28845) of CC1(C)CN(CC(=O)NC2C3CC4CC2CC(C(N)=O)(C4)C3)S(=O)(=O)N(c2c(Cl)cc(Cl)cc2Cl)C1 (stereo not drawn)
5 nM

Write down the reported IC50 (system: UniProt:P28845) of CC1CN(CC(=O)NC2C3CC4CC2CC(C(N)=O)(C4)C3)S(=O)(=O)N(c2c(Cl)cc(Cl)cc2Cl)C1 (stereo not drawn)
1 nM

Write down the reported IC50 (system: UniProt:P28845) of NC(=O)C12CC3CC(C1)C(NC(=O)CN1CCCN(c4c(F)cc(F)cc4F)S1(=O)=O)C(C3)C2 (stereo not drawn)
20 nM

Write down the reported IC50 (system: UniProt:P28845) of NC(=O)C12CC3CC(C1)C(NC(=O)CN1CCN(c4c(Cl)cc(Cl)cc4Cl)S1(=O)=O)C(C3)C2 (stereo not drawn)
187 nM

Write down the reported IC50 (system: UniProt:P28845) of NC(=O)C12CC3CC(C1)C(NC(=O)CN1CCCN(c4ccccc4F)S1(=O)=O)C(C3)C2 (stereo not drawn)
14 nM

Write down the reported IC50 (system: UniProt:P28845) of CC(C)(C)OC(=O)N1CCCN(CC(=O)NC2C3CC4CC(C3)CC2C4)S1(=O)=O (stereo not drawn)
363 nM

Write down the reported IC50 (system: UniProt:P28845) of NC(=O)C12CC3CC(C1)C(NC(=O)CN1CCCN(c4c(Cl)cc(Cl)cc4Cl)S1(=O)=O)C(C3)C2 (stereo not drawn)
0.2 nM

Write down the reported IC50 (system: UniProt:P28845) of O=C(CN1CCCN(Cc2ccccc2F)S1(=O)=O)NC1C2CC3CC(C2)CC1C3 (stereo not drawn)
1660 nM

Write down the reported IC50 (system: UniProt:P28845) of NC(=O)C12CC3CC(C1)C(NC(=O)CN1CCCCN(c4c(Cl)cc(Cl)cc4Cl)S1(=O)=O)C(C3)C2 (stereo not drawn)
0.4 nM

Write down the reported IC50 (system: UniProt:P28845) of Cc1ccc(N2CCCN(CC(=O)NC3C4CC5CC(C4)CC3C5)S2(=O)=O)cc1 (stereo not drawn)
3370 nM
